Target: AAK1 (full length human) (Homo sapiens)
Assay: HEK281 Cell-Based Assay (phospho-mu2 Western blot in HEK293F cells transfected with AAK1 and AP2M1)
Settings: IC50 (nM), functional potency; inhibition of mu2 phosphorylation in HEK293F cells, 3 hours incubation, 5 concentrations
readoutLabel: IC50 (nM)

INSERT INTO results (molecule, readoutlabel, testvalue) VALUES
  ('CC(C)CC(N)c1nc(N(C)C)c2cc(-c3cnco3)ccc2n1 (stereo not shown)', 'IC50', 360);

A = COc1cc2nc(CCC(C)C)[nH]c(=O)c2cc1-c1cnco1
B = CC(C)CCc1nc(C(C)C)c2cc(-c3ccncc3)ccc2n1
Could you point out whether the larger IC50 belongs to A or to B ? Your answer should be the label of the entry you select.
B
(B: 1390 nM, A: 20 nM)

----------
Target: AAK1 (full length human) (Homo sapiens, UniProt Q2M2I8)
Sequence (Q2M2I8 1-863 isoform Q2M2I8-2): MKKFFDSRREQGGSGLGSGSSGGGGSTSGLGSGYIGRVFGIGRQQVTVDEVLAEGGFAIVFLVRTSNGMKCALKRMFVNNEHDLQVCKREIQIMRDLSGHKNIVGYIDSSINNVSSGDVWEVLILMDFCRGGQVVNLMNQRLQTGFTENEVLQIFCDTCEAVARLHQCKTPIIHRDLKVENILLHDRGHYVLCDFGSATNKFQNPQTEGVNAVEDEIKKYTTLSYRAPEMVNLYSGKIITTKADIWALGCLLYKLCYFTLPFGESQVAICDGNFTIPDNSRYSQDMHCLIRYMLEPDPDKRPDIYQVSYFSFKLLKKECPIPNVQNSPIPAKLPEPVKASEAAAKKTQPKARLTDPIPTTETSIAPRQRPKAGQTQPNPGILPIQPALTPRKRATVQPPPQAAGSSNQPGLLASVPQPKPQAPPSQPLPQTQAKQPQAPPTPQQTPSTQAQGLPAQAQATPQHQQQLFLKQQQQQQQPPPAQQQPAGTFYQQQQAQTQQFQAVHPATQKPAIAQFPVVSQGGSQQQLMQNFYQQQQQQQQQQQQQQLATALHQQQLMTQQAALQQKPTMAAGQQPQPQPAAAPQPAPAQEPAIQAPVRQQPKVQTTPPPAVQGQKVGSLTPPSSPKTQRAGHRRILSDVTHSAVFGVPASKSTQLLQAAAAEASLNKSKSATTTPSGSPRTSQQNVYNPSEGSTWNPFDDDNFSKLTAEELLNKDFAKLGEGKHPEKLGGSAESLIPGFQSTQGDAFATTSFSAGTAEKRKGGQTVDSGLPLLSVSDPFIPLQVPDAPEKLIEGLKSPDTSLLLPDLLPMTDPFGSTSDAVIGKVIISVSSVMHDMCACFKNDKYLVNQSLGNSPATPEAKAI
Assay: HEK281 Cell-Based Assay (phospho-mu2 Western blot in HEK293F cells transfected with AAK1 and AP2M1)
Conditions: IC50 (nM), functional potency; inhibition of mu2 phosphorylation in HEK293F cells, 3 hours incubation, 5 concentrations
readoutLabel: IC50 (nM)

Observe how each entry below is paired with its result.
INSERT INTO measurements (molecule, tgt, readoutlabel, testvalue) VALUES
  ('CCc1nc(C(C)CC(C)C)nc2ccc(-c3ccncc3)cc12 (stereo not shown)', 'AAK1 (full length human) (Homo sapiens, UniProt Q2M2I8)', 'IC50', 223),
  ('COc1cc2nc(CCC(C)C)nc(C)c2cc1-c1cnco1', 'AAK1 (full length human) (Homo sapiens, UniProt Q2M2I8)', 'IC50', 590),
  ('CCNc1nc(C(N)CC(C)C)nc2ccc(-c3ccncc3OC)cc12 (stereo not shown)', 'AAK1 (full length human) (Homo sapiens, UniProt Q2M2I8)', 'IC50', 380),
  ('CNc1nc(CCC(C)C)nc2ccc(-c3cnco3)cc12', 'AAK1 (full length human) (Homo sapiens, UniProt Q2M2I8)', 'IC50', 1140),
  ('CCNc1nc(C(N)CC(C)C)nc2ccc(-c3cnco3)cc12 (stereo not shown)', 'AAK1 (full length human) (Homo sapiens, UniProt Q2M2I8)', 'IC50', 850),
  ('CSc1nc(CCC(C)C)nc2ccc(-c3cnco3)cc12', 'AAK1 (full length human) (Homo sapiens, UniProt Q2M2I8)', 'IC50', 159);

a = CCc1nc(CCC(C)C)nc2ccc(-c3ccncc3)cc12
b = CCc1nc(C(N)CC(C)C)nc2ccc(-c3ccncc3)cc12 (stereo not shown)
c = CCN(CC)c1nc(C(N)CC(C)C)nc2ccc(-c3cnco3)cc12 (stereo not shown)
d = CCc1nc(C(N)CC(C)C)nc2cc(OC)c(-c3cnco3)cc12 (stereo not shown) [Example 85]
e = CC(C)CCc1nc(NCCN)c2cc(-c3cnco3)ccc2n1
Your job: order these 5 records by IC50, ascending. I'd appreciate it if you listed the labels in the requested order.
d, b, c, a, e

----------
Molecular target: AAK1 (full length human) (Homo sapiens)
Assay: HEK281 Cell-Based Assay (phospho-mu2 Western blot in HEK293F cells transfected with AAK1 and AP2M1)
Conditions: IC50 (nM), functional potency; inhibition of mu2 phosphorylation in HEK293F cells, 3 hours incubation, 5 concentrations
readoutLabel: IC50 (nM)

Solved entries (count: 2):
INSERT INTO results (compound, testvalue) VALUES
  ('CNc1nc(C(N)CC(C)C)nc2ccc(-c3ccncc3)cc12 (stereo not shown)', 79),
  ('CCN(CC)c1nc(C(N)CC(C)C)nc2ccc(-c3ccncc3OC)cc12 (stereo not shown)', 20);

I = CCc1nc(C(N)C2CCCCC2)nc2ccc(-c3ccncc3)cc12 (single isomer, unassigned; (+)) [Example 8]
II = CC(C)CCc1nc(C2CC2)c2cc(-c3ccncc3)ccc2n1
Name the one with the greater IC50 value, either I or II as given. To answer, give the label that identifies your chosen option.
II
(II: 1340 nM, I: 61 nM)

----------
Biological target: AAK1 (full length human) (Homo sapiens, UniProt Q2M2I8)
Assay: HEK281 Cell-Based Assay (phospho-mu2 Western blot in HEK293F cells transfected with AAK1 and AP2M1)
Details: IC50 (nM), functional potency; inhibition of mu2 phosphorylation in HEK293F cells, 3 hours incubation, 5 concentrations
readoutLabel: IC50 (nM)

1 = CC(C)CCc1nc(NCCO)c2cc(-c3ccncc3)ccc2n1
2 = COCCNc1nc(C(N)CC(C)C)nc2ccc(-c3cnco3)cc12 (centres unmarked)
3 = CC(C)CCC1=Nc2ccc(-c3ccncc3)cc2C(CO)N1 (centres unmarked)
4 = CCNc1nc(C(N)CC(C)C)nc2ccc(-c3ccncc3)cc12 (centres unmarked)
// ranking: key=IC50, reverse=True State the ranking by listing the labels in the requested order.
2, 1, 4, 3

1 = COc1c(-c2cnco2)ccc2nc(C(N)CC(C)C)ncc12 (centres unmarked)
2 = CC(C)CCc1nc(NCCN(C)C)c2cc(-c3ccncc3)ccc2n1
Would you mind telling me which has the lower recorded IC50 between 1 and 2 ? Your answer should be the label attached to the chosen record.
1
(1: 360 nM, 2: 1190 nM)

I = CC(C)CC(N)c1nc(NCCO)c2cc(-c3cnco3)ccc2n1 (centres unmarked)
II = CCc1nc(C(N)CC(C)C)nc2c(OC)cc(-c3cnco3)cc12 (centres unmarked)
Sorting by IC50 in descending order, would I or II appear first? Please indicate the selected item by its label.
I

The measurements presented in this section are drawn from patent US20170239249A1.
